Numbers sourced from ChEMBL document CHEMBL4665652.

test_name: AUClast in mouse at 10 mg/kg, po
Assay type: ADME, organism-based
Design: route oral, time 0 - last, dose 10 mg/kg
test_conditions: in vivo
measured_parameter: AUC(0-t) (ng·h/mL)
Number in ng·h/mL, nothing else.

input: For the compound shown here, CNC(=O)[C@@H]1CCCN1S(=O)(=O)c1ccc(Cl)c(COc2cccc3c(-c4cncn4C)cc(C(C)C)nc23)c1Cl , give the reported AUC(0-t).
output: 3900

----------
test_name: Tmax in mouse at 30 mg/kg, po
Assay type: ADME, organism-based
test_conditions: in vivo
measured_parameter: Tmax (min)
The answer is to be given in min; state only the numeric part.

input: For the molecule shown here, CNC(=O)[C@@H]1CCCN1S(=O)(=O)c1ccc(Cl)c(COc2cccc3c(-c4cncn4C)cc(C(C)C)nc23)c1Cl , give the reported Tmax.
output: 15

----------
test_name: Half life in mouse at 1 mg/kg, iv
Format: ADME, organism-based
test_conditions: in vivo
measured_parameter: half-life (min)
All answers are understood in min, so give the number only.

input: Form field: reported half-life of CNC(=O)[C@@H]1CCCN1S(=O)(=O)c1ccc(Cl)c(COc2cccc3c(-c4cncn4C)cc(C(C)C)nc23)c1Cl
output: 9.6

----------
test_name: Stability in human microsomes assessed as unbound intrinsic clearance
Assay type: ADME, Microsome
# maps each entry to its CL free
A number alone suffices; assume L/h/kg.

Before answering, review these 7 worked examples.
1) Cc1cc(C(F)(F)F)c2cccc(OCc3c(Cl)ccc(S(=O)(=O)N4CCC(CCO)CC4)c3Cl)c2n1 = 22
2) Cc1cc(C(F)(F)F)c2cccc(OCc3c(Cl)ccc(S(=O)(=O)N4CCC[C@H]4C(N)=O)c3Cl)c2n1 = 10
3) COC[C@@H]1CCCN1S(=O)(=O)c1ccc(Cl)c(COc2cccc3c(C(F)(F)F)cc(C)nc23)c1Cl = 27
4) Cc1cc(C(F)(F)F)c2cccc(OCc3c(Cl)ccc(S(=O)(=O)N4CC[C@@H](N(C)C)C4)c3Cl)c2n1 = 10
5) CNC(=O)[C@@H]1CCCN1S(=O)(=O)c1ccc(Cl)c(COc2cccc3c(-c4cccnc4)cc(C)nc23)c1Cl = 14
6) CNC(=O)[C@@H]1CCCN1S(=O)(=O)c1ccc(Cl)c(COc2cccc3c(C(F)(F)F)cc(C(C)C)nc23)c1Cl = 30
7) CNC(=O)[C@@H]1CCCN1S(=O)(=O)c1ccc(Cl)c(COc2cccc3c(-c4ccncc4)cc(C)nc23)c1Cl = 13

// below: CL free requested for another molecule
input: Which CL free value is on record for CNC(=O)[C@@H]1CCCN1S(=O)(=O)c1ccc(Cl)c(COc2cccc3c(-c4nccn4C)cc(C)nc23)c1Cl ?
output: 7

----------
# key: entry, value: pEC50
test_target: Nuclear receptor ROR-gamma (Homo sapiens, UniProt P51449)
Sequence (P51449 whole entry, the tested form may be a part): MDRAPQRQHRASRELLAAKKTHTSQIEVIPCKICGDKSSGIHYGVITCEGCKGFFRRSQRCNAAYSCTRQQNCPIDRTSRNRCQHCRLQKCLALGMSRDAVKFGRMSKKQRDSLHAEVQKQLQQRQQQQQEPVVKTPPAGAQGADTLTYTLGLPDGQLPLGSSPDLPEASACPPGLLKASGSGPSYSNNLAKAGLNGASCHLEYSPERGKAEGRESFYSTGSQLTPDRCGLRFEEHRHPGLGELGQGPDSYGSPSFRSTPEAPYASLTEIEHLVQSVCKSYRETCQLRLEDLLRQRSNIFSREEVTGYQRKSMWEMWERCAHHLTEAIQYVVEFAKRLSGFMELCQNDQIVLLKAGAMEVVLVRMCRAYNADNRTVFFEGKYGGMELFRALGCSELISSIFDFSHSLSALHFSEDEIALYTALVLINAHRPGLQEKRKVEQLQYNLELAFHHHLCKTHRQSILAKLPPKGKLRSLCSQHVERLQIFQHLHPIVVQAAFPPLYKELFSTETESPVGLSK
test_name: Inverse agonist activity at pSG5GAL4-DBD/LBD fused human RORgamma receptor expressed in COS7 cells co-expressing 5 copies of GAL4 response element after 18 hrs by luciferase reporter gene based assay
Format: cell-based
Please note pEC50 is a logarithmic value: minus log10 of concentration in mol/L. Answer with that number alone.

Below are worked cases with known answers.
1) Cc1cc(C(F)(F)F)c2cccc(OCc3c(Cl)ccc(S(=O)(=O)N4CCC[C@H]4C(N)=O)c3Cl)c2n1 = 6.36
2) CNC(=O)[C@@H]1CCCN1S(=O)(=O)c1ccc(Cl)c(COc2cccc3c(-c4ccccc4)cc(C)nc23)c1Cl = 6.49
3) CNC(=O)[C@@H]1CCCN1S(=O)(=O)c1ccc(Cl)c(COc2cccc3c(-c4ccncc4)cc(C(C)C)nc23)c1Cl = 6.66
4) Cc1cc(C(F)(F)F)c2cccc(OCc3c(Cl)ccc(S(=O)(=O)N4CC[C@@H](N(C)C)C4)c3Cl)c2n1 = 6.04
5) Cc1cc(C(F)(F)F)c2cccc(OCc3c(Cl)ccc(S(=O)(=O)N4CCC(C#N)CC4)c3Cl)c2n1 = 6.12
6) CNC(=O)[C@@H]1CCCN1S(=O)(=O)c1ccc(Cl)c(COc2cccc3c(-n4ccnc4)cc(C(C)C)nc23)c1Cl = 6.28
7) CNC(=O)[C@@H]1CCCN1S(=O)(=O)c1ccc(Cl)c(COc2cccc3c(-c4cncn4C)cc(C(C)C)nc23)c1Cl = 6.66
8) CNC(=O)[C@@H]1CCCN1S(=O)(=O)c1ccc(Cl)c(COc2cccc3c(-n4ccnc4)cc(C(F)(F)F)nc23)c1Cl = 6.77

input: Given the entry CNC(=O)[C@@H]1CCCN1S(=O)(=O)c1ccc(Cl)c(COc2cccc3c(-n4ccnc4)cc(C)nc23)c1Cl , report its measured pEC50.
output: 5.87

input: Name the recorded pEC50 for Cc1cc(C(F)(F)F)c2cccc(OCc3c(Cl)ccc(S(=O)(=O)N4CCC[C@H]4CO)c3Cl)c2n1 .
output: 6.02

input: Which value of pEC50 has been reported for COC[C@@H]1CCCN1S(=O)(=O)c1ccc(Cl)c(COc2cccc3c(C(F)(F)F)cc(C)nc23)c1Cl in the records?
output: 6.80

input: Fill in the blank: the reported pEC50 of Cc1cc(C(F)(F)F)c2cccc(OCc3c(Cl)ccc(S(=O)(=O)N4CCC[C@H]4C(=O)O)c3Cl)c2n1 is ____.
output: 5.86

input: Please look up its pEC50: Cc1cc(C(F)(F)F)c2cccc(OCc3c(Cl)ccc(S(=O)(=O)N4C[C@@H](C)O[C@@H](C)C4)c3Cl)c2n1
output: 6.66

input: Could you tell me which pEC50 is on file for Cc1cc(C(F)(F)F)c2cccc(OCc3c(Cl)ccc(S(=O)(=O)N4CCC(CCO)CC4)c3Cl)c2n1 ?
output: 6.41

input: Bench note: what pEC50 did CNC(=O)[C@@H]1CCCN1S(=O)(=O)c1ccc(Cl)c(COc2cccc3c(-c4cncn4C)cc(C)nc23)c1Cl show?
output: 5.82

----------
test_name: Half life in mouse at 30 mg/kg, po
Type: ADME, organism-based
test_conditions: in vivo
measured_parameter: half-life

input: Field request: half-life | item: CNC(=O)[C@@H]1CCCN1S(=O)(=O)c1ccc(Cl)c(COc2cccc3c(-c4cncn4C)cc(C(C)C)nc23)c1Cl
output: 1 h

----------
test_name: Cmax in mouse at 30 mg/kg, po
Assay type: ADME, organism-based
Design: route oral, dose 30 mg/kg
test_conditions: in vivo
measured_parameter: Cmax (ng/mL)
Answer in ng/mL, number only, no unit symbol.

input: Give its Cmax value. Item: CNC(=O)[C@@H]1CCCN1S(=O)(=O)c1ccc(Cl)c(COc2cccc3c(-c4cncn4C)cc(C(C)C)nc23)c1Cl
output: 11800

----------
test_name: AUClast in mouse at 100 mg/kg, po
Format: ADME, organism-based
Design: time 0 - last, route oral, dose 100 mg/kg
test_conditions: in vivo
measured_parameter: AUC(0-t) (µg·h/mL)
Reply with just the number (in µg·h/mL).

input: AUC(0-t) for CNC(=O)[C@@H]1CCCN1S(=O)(=O)c1ccc(Cl)c(COc2cccc3c(-c4cncn4C)cc(C(C)C)nc23)c1Cl ?
output: 270

----------
Reported CL free values for a set of molecules
test_name: Stability in mouse microsomes assessed as unbound intrinsic clearance
Format: ADME, Microsome
Kindly provide the numeric value in mL/min/kg only, without the unit symbol.

See these solved cases before continuing.
1) Cc1cc(C(F)(F)F)c2cccc(OCc3c(Cl)ccc(S(=O)(=O)N4CCC(CCO)CC4)c3Cl)c2n1 = 1080
2) CNC(=O)[C@@H]1CCCN1S(=O)(=O)c1ccc(Cl)c(COc2cccc3c(-c4nccn4C)cc(C)nc23)c1Cl = 917
3) CNC(=O)[C@@H]1CCCN1S(=O)(=O)c1ccc(Cl)c(COc2cccc3c(-n4ccnc4)cc(C(F)(F)F)nc23)c1Cl = 130
4) CNC(=O)[C@@H]1CCCN1S(=O)(=O)c1ccc(Cl)c(COc2cccc3c(-c4ccncc4)cc(C)nc23)c1Cl = 550
5) Cc1cc(C(F)(F)F)c2cccc(OCc3c(Cl)ccc(S(=O)(=O)N4CCC[C@H]4C(N)=O)c3Cl)c2n1 = 12600
6) CCc1cc(C(F)(F)F)c2cccc(OCc3c(Cl)ccc(S(=O)(=O)N4CCC[C@H]4C(=O)NC)c3Cl)c2n1 = 1280
7) Cc1cc(C(F)(F)F)c2cccc(OCc3c(Cl)ccc(S(=O)(=O)N4CC[C@@H](N(C)C)C4)c3Cl)c2n1 = 867
8) Cc1cc(C(F)(F)F)c2cccc(OCc3c(Cl)ccc(S(=O)(=O)N4CCCCC4)c3Cl)c2n1 = 1000
9) CNC(=O)[C@@H]1CCCN1S(=O)(=O)c1ccc(Cl)c(COc2cccc3c(-c4cccnc4)cc(C)nc23)c1Cl = 700
10) Cc1cc(C(F)(F)F)c2cccc(OCc3c(Cl)ccc(S(=O)(=O)N4CCC[C@H]4CO)c3Cl)c2n1 = 1630

input: Look up CL free: Cc1cc(C(F)(F)F)c2cccc(OCc3c(Cl)ccc(S(=O)(=O)N4C[C@@H](C)O[C@@H](C)C4)c3Cl)c2n1
output: 933

input: Request the reported CL free associated with CNC(=O)[C@@H]1CCCN1S(=O)(=O)c1ccc(Cl)c(COc2cccc3c(-c4ccncc4)cc(C(C)C)nc23)c1Cl
output: 633
